molecular target: Insulin-degrading enzyme (Homo sapiens) (UniProt P14735); assay: human IDE activators in live cells, primary screen, fluorescence polarization, HEK cells, FAbeta-B substrate (AID 493087); conditions: FAbeta-B cleavage, at 5.96 µM, stronger effect = higher value, 0% vehicle, 100% cell-free pure enzyme wells
Sequence (P14735 whole entry, looked up): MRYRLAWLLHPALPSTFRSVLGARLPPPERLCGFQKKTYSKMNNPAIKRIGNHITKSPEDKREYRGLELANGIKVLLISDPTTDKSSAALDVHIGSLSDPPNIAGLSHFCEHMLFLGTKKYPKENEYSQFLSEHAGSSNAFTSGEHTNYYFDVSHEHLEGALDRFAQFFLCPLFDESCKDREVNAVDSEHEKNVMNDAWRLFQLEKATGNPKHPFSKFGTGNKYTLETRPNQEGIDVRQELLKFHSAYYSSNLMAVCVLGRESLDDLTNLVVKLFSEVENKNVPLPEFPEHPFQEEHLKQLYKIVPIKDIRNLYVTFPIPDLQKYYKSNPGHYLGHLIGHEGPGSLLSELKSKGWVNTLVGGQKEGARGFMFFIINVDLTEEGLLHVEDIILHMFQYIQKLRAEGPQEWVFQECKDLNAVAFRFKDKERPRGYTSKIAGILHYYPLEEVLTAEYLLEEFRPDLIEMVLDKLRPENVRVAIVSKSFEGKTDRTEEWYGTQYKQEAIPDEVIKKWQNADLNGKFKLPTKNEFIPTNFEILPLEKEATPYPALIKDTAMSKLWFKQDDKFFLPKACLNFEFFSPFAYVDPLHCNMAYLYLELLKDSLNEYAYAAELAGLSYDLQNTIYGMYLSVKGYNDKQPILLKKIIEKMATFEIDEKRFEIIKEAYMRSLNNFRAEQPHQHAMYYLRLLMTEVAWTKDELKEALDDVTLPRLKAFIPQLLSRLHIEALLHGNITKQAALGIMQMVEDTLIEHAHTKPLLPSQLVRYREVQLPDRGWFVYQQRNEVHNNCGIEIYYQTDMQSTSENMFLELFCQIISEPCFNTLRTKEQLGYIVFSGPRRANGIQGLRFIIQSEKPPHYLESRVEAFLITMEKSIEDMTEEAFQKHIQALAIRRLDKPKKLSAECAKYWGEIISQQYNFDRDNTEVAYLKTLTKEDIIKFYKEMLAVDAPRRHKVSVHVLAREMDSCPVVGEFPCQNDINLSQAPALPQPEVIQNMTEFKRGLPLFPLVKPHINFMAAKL
About 240 (0.071%) of roughly 340,000 compounds were called active. The list comes from a sample in which actives are over-represented; it also holds close analogues and randomly drawn compounds.
readout_kind: activation (%)
API: value field is a number in %; no unit string.

# count of solved cases: 5
CCc1nccn1S(=O)(=O)c1cccc([N+](=O)[O-])c1: 6.7
O=C1/C(=C\c2ccc(O)cc2)CCC1CNc1ccc(Cl)cc1 (configuration not stated): -1.61
COc1ccc(Cn2cc(CN3CCS(=O)(=O)N(Cc4ccc(-c5cccc(Cl)c5)cc4)C(C)C3=O)nn2)cc1 (configuration not stated): 1.16
S=C1Nc2cc(Cl)ccc2Sc2ccccc21: 0.11
C=CCNC(=S)/N=c1/ccccn1Cc1ccccc1: 4.17

Report activation for N#C/C(=C/c1cccc([N+](=O)[O-])c1)c1nnc2n1CCCCC2 tested on Insulin-degrading enzyme (Homo sapiens) (UniProt P14735).
1.53

State its activation on Insulin-degrading enzyme (Homo sapiens) (UniProt P14735): Cn1c2c(c(=O)n(C)c1=O)[C@@H]1c3c(ccc4ccccc34)OC[C@@H]1CO2
9.31

====

target: Insulin-degrading enzyme (Homo sapiens) (UniProt P14735); assay: human IDE activators in live cells, primary screen, fluorescence polarization, HEK cells, FAbeta-B substrate (AID 493087); settings: FAbeta-B cleavage, at 5.96 µM, stronger effect = higher value, 0% vehicle, 100% cell-free pure enzyme wells
Hit rate of the full screen: of about 340,000 compounds, about 240 (0.071%) were called active. The list comes from a sample in which actives are over-represented; it also holds close analogues and randomly drawn compounds.
readout_kind: activation (%)
Just the number please, in %, no unit attached.

Request the reported activation associated with Cc1ccsc1C(=O)NC1CCCCC1C (stereo not drawn)
-2.46

Given the molecule CCCC(C)C(=O)OCC(=O)Nc1c(Br)cc(C)cc1Br (stereo not drawn) , what is its reported activation?
4.33

Item CN(CC(=O)NC1CCCCC1)S(=O)(=O)c1cccc2cccnc12 has what recorded activation?
4.22

====

target: Insulin-degrading enzyme (Homo sapiens); assay: human IDE activators in live cells, primary screen, fluorescence polarization, HEK cells, FAbeta-B substrate (AID 493087); conditions: FAbeta-B cleavage, at 5.96 µM, stronger effect = higher value, 0% vehicle, 100% cell-free pure enzyme wells
In all, about 340,000 compounds went through this assay and about 240 (0.071%) were called active. The sample as a whole holds a higher share of actives than the screen did.
readout_kind: activation (%)
Numbers only here, please. The scale is %.

Worked set:
COc1ccc(C(=O)CN2C(=O)NC(C)(c3ccc(C)cc3)C2=O)cc1OC (stereo not given): -1.44
O=C(N/C(=C\c1ccc(F)cc1)C(=O)N1CCCCCC1)c1ccccc1: 5.73
Oc1ccc(C2Nc3cccc4cccc(c34)N2)cc1: 19.4
COCC1CCN(C(=O)CCc2nnc(C3(c4ccc(Cl)cc4)CCC3)o2)C1 (stereo not given): 0.92
CCOCCCNC(=O)c1c[nH]c2cc(C)ccc2c1=O: 4.46

Given the molecule CCCCOc1ccc(NC(=O)CSCC(=O)OCC)cc1 , what is its reported activation?
0.69

Name the recorded activation for COc1ccccc1CC(NC(C)=O)C(=O)NC1CCN(C(=O)Nc2ccccc2Cl)CC1 (stereo not given) .
3.56

Sample COc1ccc(N2CCN(C(=O)c3ccc(N4CCCCS4(=O)=O)cc3)CC2)cc1 — what was its activation?
1.3

Data request, read-out activation, for CC(C#N)(NC(=O)CN1CCN(S(=O)(=O)c2cc(C(F)(F)F)ccc2Cl)CC1)C1CC1 (stereo not given)
5.5

Returns the measured activation for the input molecule. Input: Brc1ccccc1C1Nc2cccc3cccc(c23)N1
8.61

Need activation of COC(=O)[C@]1(S(=O)(=O)c2ccccc2)C[C@@H]2ON=C(c3ccc(OC)cc3)[C@@H]2C1 , thanks.
-5.33
